Exercise: for every item that follows, state its recorded shrunken log2 fold change.
tested on: Escherichia coli TOP10; experiment: shrunken log2 fold change of peptide-encoding DNA abundance (4.5 h post-induction vs induction); higher = less antimicrobial activity (less host growth inhibition); conditions: time post-induction: 4.5 h; library: site-saturation at positions 5, 18, 19, 20;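 note: peptides expressed intracellularly from a pBAD plasmid library in pooled LB shake-flask culture, induced with 0.3% L-arabinose, DNA abundance read by NGS, three biological replicates, DESeq2 with apeglm shrinkage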
Field format: numeric only.

For this sequence ( `RRIRSRPPRLPRPRPRPYKIPRP` ), measured shrunken log2 fold change is -0.846

Consider `RRIRYRPPRLPRPRPRPLWMPRP` . Its measured shrunken log2 fold change is -0.63

Lab note: measured shrunken log2 fold change of `RRIRGRPPRLPRPRPRPQQKPRP` was 0.206

Quick note, shrunken log2 fold change for `RRIRCRPPRLPRPRPRPVHKPRP` landed at 0.287

Recorded shrunken log2 fold change (sequence `RRIRCRPPRLPRPRPRPASPPRP` ): 0.117

Record summary for `RRIRMRPPRLPRPRPRPWLRPRP` : reported shrunken log2 fold change = 0.0433

Memo: `RRIRTRPPRLPRPRPRPNLVPRP` , reported shrunken log2 fold change: -0.149
